Source of measurements: patent US20230124361A1

# Study System: STING (Homo sapiens, UniProt Q86WV6, G230A/H232R/R293Q/R71H)
# Sequence (Q86WV6 whole entry R71H/G230A/H232R/R293Q): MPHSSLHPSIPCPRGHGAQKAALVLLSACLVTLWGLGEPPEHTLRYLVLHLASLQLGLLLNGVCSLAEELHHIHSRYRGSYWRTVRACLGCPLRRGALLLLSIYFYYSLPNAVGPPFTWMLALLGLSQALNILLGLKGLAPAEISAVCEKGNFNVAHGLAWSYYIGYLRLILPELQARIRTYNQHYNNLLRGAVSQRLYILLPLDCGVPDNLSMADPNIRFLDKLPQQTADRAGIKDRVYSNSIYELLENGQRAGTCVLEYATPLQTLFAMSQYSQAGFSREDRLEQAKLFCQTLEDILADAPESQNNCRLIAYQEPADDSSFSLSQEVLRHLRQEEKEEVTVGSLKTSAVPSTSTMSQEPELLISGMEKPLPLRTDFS
# Assay Protocol: Reporter gene expression assay in THP1-Dual cells (IRF pathway Lucia luciferase, 2',3'-cGAMP stimulation)
# Cond: 10 min preincubation, 5 μM 2',3'-cGAMP, 20 hr, IRF reporter QUANTI-Luc, read-out: THP-1 (HAQ) Activity
Endpoint Name: IC50

[
  {
    "Compound": "N#CCC1Sc2ccc(NC(=O)Nc3ccc4cc[nH]c4c3)cc2N(Cc2ccccc2)C1=O (centres unmarked)",
    "Result": "1 to 10 µM"
  },
  {
    "Compound": "CN(C(=O)Nc1ccc2cc[nH]c2c1)c1ccc2c(c1)N(Cc1ccccc1)C(=O)CS2",
    "Result": "1 to 10 µM"
  }
]

Provide IC50 values for the following items, in order.
1. Nc1ncc2c(n1)CCN(C(=O)Nc1ccc3c(c1)N(Cc1ccccc1)C(=O)CS3)C2
2. O=C1CSc2ccc(OCCc3ccc(F)cc3)cc2N1Cc1c(F)cccc1Cl
3. O=C(Nc1ccc2c(c1)OCC(=O)N2Cc1nc(-c2ccccc2)no1)Nc1ccc2cc[nH]c2c1

1. > 10 µM
2. 1 to 10 µM
3. 1 to 10 µM

Provide IC50 values for the following items, in order.
1. O=C(Nc1ccc2c(c1)OCCN2Cc1c(F)cccc1Cl)Nc1ccc2cc[nH]c2c1
2. O=C(Nc1cccnc1)Nc1ccc2c(c1)N(Cc1ccccc1)C(=O)CS2
3. O=C(Nc1ccc2c(c1)N(Cc1ccncc1)CCS2)Nc1ccc2cc[nH]c2c1

1 to 10 µM
1 to 10 µM
≤ 1 µM

###

# Study System: STING (Homo sapiens, UniProt Q86WV6, G230A/H232R/R293Q/R71H)
# Assay Protocol: Reporter gene expression assay in THP1-Dual cells (IRF pathway Lucia luciferase, 2',3'-cGAMP stimulation)
# Cond: 10 min preincubation, 5 μM 2',3'-cGAMP, 20 hr, IRF reporter QUANTI-Luc, read-out: THP-1 (HAQ) Activity
pIC50: −log10 of the molar value.
Exercise: for every item that follows, state its recorded pIC50.

Record excerpt, results attached:
[
  {
    "Molecule": "O=C(Nc1ccncc1)Nc1ccc2c(c1)N(Cc1ccccc1)C(=O)CS2 [Example 6]",
    "Study System": "STING (Homo sapiens, UniProt Q86WV6, G230A/H232R/R293Q/R71H)",
    "Result": "5.00 to 6.00"
  },
  {
    "Molecule": "O=C(Nc1ccc2c(c1)OCC(=O)N2Cc1ccccn1)Nc1ccc2cc[nH]c2c1 [Example 149]",
    "Study System": "STING (Homo sapiens, UniProt Q86WV6, G230A/H232R/R293Q/R71H)",
    "Result": "5.00 to 6.00"
  },
  {
    "Molecule": "O=C(Nc1ccc2c(c1)OCC(=O)N2Cc1ncno1)Nc1ccc2cc[nH]c2c1 [Example 163]",
    "Study System": "STING (Homo sapiens, UniProt Q86WV6, G230A/H232R/R293Q/R71H)",
    "Result": "< 5.00"
  },
  {
    "Molecule": "O=C(Nc1ccc2c(c1)N(c1ccccc1)CCO2)Nc1ccc2cc[nH]c2c1 [Example 184]",
    "Study System": "STING (Homo sapiens, UniProt Q86WV6, G230A/H232R/R293Q/R71H)",
    "Result": "5.00 to 6.00"
  },
  {
    "Molecule": "O=C(Nc1ccc2c(c1)CCCC2)Nc1ccc2c(c1)OCC(=O)N2Cc1ccccc1 [Example 133]",
    "Study System": "STING (Homo sapiens, UniProt Q86WV6, G230A/H232R/R293Q/R71H)",
    "Result": "5.00 to 6.00"
  },
  {
    "Molecule": "O=C(Nc1ccc2c(c1)N(CC1CC1)CCS2)Nc1ccc2cc[nH]c2c1 [Example 65]",
    "Study System": "STING (Homo sapiens, UniProt Q86WV6, G230A/H232R/R293Q/R71H)",
    "Result": "≥ 6.00"
  },
  {
    "Molecule": "CN1Cc2ccc(NC(=O)Nc3ccc4cc[nH]c4c3)cc2N(Cc2ccccc2)C1=O [Example 40]",
    "Study System": "STING (Homo sapiens, UniProt Q86WV6, G230A/H232R/R293Q/R71H)",
    "Result": "5.00 to 6.00"
  },
  {
    "Molecule": "N#Cc1ccc(CN2C(=O)COc3cc(NC(=O)Nc4ccc5cc[nH]c5c4)ccc32)c(F)c1 [Example 120]",
    "Study System": "STING (Homo sapiens, UniProt Q86WV6, G230A/H232R/R293Q/R71H)",
    "Result": "5.00 to 6.00"
  },
  {
    "Molecule": "O=C(Nc1ccc2c(c1)OCC(=O)N2Cc1ccc2c(c1)OCO2)Nc1ccc2cc[nH]c2c1 [Example 114]",
    "Study System": "STING (Homo sapiens, UniProt Q86WV6, G230A/H232R/R293Q/R71H)",
    "Result": "≥ 6.00"
  },
  {
    "Molecule": "O=C(Nc1ccc(F)cc1)Nc1ccc2c(c1)SCC(=O)N2Cc1ccccc1 [Example 52]",
    "Study System": "STING (Homo sapiens, UniProt Q86WV6, G230A/H232R/R293Q/R71H)",
    "Result": "5.00 to 6.00"
  }
]

Provide pIC50 values for the following items, in order.
1. N#C/N=C(\Nc1ccc2c(c1)N(Cc1ccccc1)C(=O)CS2)Nc1ccc2cc[nH]c2c1 [Example 192]
2. O=C(Nc1ccc2c(c1)N(Cc1ccccc1)CC2)Nc1ccc2cc[nH]c2c1 [Example 74]

< 5.00
5.00 to 6.00

Provide pIC50 values for the following items, in order.
1. O=C(Nc1ccc2c(c1)SCC(=O)N2Cc1c(F)cc(O)cc1F)Nc1ccc2cc[nH]c2c1 [Example 127]
2. O=C(Nc1ccc2c(c1)OCC(=O)N2CC1CCOC1)Nc1ccc2cc[nH]c2c1 (stereo not drawn) [Example 150]
3. O=C(Nc1ccc2c(c1)OCC(=O)N2Cc1ccc(OC(F)F)cc1)Nc1ccc2cc[nH]c2c1 [Example 109]

1. 5.00 to 6.00
2. 5.00 to 6.00
3. ≥ 6.00

Provide pIC50 values for the following items, in order.
1. O=C(c1ccccc1)N1CCSc2ccc(S(=O)(=O)NCc3ccco3)cc21 [Example 49]
2. CN1C(=O)CSc2ccc(NC(=O)Nc3ccc4cc[nH]c4c3)cc21 [Example 87]
3. O=C(Nc1ccc2c(c1)OCC(=O)N2Cc1ccc(OC(F)(F)F)c(Cl)c1)Nc1ccc2cc[nH]c2c1 [Example 107]
4. O=C1CSc2ccc(NC(=O)Nc3ccc4cc[nH]c4c3)cc2N1 [Example 195]
5. O=C(Nc1ccc2c(c1)SCCN2Cc1ccccc1)Nc1ccc2cc[nH]c2c1 [Example 63]
6. NC(=O)c1ccccc1CN1C(=O)COc2cc(NC(=O)Nc3ccc4cc[nH]c4c3)ccc21 [Example 144]
7. O=C(Nc1ccc2c(c1)N(C(=O)c1ccccc1)CCS2)Nc1ccc2cc[nH]c2c1 [Example 57]
8. O=C(Nc1ccc2c(c1)OCC(=O)N2Cc1cccnc1)Nc1ccc2cc[nH]c2c1 [Example 148]

1. < 5.00
2. 5.00 to 6.00
3. ≥ 6.00
4. < 5.00
5. < 5.00
6. 5.00 to 6.00
7. < 5.00
8. 5.00 to 6.00
